- test.target: p70S6K (Homo sapiens, UniProt P23443, T412E)
- Construct: human p70S6 kinase domain residues 1-421, containing a T412E mutation; made in house
- Sequence (P23443 1-421 T412E): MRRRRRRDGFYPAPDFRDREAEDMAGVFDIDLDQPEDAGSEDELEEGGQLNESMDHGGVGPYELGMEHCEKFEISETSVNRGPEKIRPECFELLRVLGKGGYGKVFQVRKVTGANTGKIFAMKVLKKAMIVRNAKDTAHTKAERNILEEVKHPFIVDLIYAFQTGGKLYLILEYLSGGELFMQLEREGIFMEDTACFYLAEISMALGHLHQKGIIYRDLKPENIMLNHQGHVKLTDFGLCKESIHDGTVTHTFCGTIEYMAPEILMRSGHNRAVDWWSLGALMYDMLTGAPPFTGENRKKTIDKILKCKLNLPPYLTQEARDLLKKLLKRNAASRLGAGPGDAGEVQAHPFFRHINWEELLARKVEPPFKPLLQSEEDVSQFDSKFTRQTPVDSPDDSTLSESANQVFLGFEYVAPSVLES
- experimental.details: p70S6 Kinase Assay (Luciferase-Coupled Chemiluminescent Kinase assay, LCCA)
- Assay type: biochemical
- recorded.conditions: human p70S6 kinase domain residues 1-421, T412E; 5 μM ATP; read-out: p70S6K IC50
pIC50: −log10 of the molar value.
Listing of entries alongside the reported pIC50.

> print(dat)
                                   compound  experimental.endpoint  result
1  C[C@H](Nc1nc(N)ncc1C#N)C(=O)Nc1cccc(C(F)(F)F)c1 [Example 90]                  pIC50  < 5.70
2  CCOc1nc(N)nc(N[C@@H](CCC(=O)OCc2ccccc2)C(=O)Nc2cccc(C(F)(F)F)c2)c1C#N [Example 165]                  pIC50  < 5.70
3  CCOC(=O)c1sc(NC(=O)CSc2nc(N)nc(SC)c2C#N)c(C#N)c1C [Example 28]                  pIC50  > 7.30

Switching to the query record.
Reported pIC50 for CSc1nc(N)nc(N[C@@H](CCC(N)=O)C(=O)Nc2cccc(C(F)(F)F)c2)c1C#N [Example 139] was 6.30 to 7.30

Recorded values, source patent US7816353B2.
